- experimental.protocol: 24 h therapeutic monitoring and noncompartmental pharmacokinetics in chronic lymphocytic leukemia patients receiving IBR
- condition.parameters: human, plasma, oral, 420 mg, ke, Patient 1, 420 mg IBR per day, steady state
readout.name: k el
Param answer (str): number followed by unit.

Form field: reported k el of Nc1ncnc2c1c(-c1ccc(Oc3ccccc3)cc1)nn2[C@@H]1CCCN(C(=O)C(O)CO)C1 (stereo partly shown) [Dihydrodiol Ibrutinib] 1.92e-05 s⁻¹

###

- experimental.protocol: 24 h therapeutic monitoring and noncompartmental pharmacokinetics in chronic lymphocytic leukemia patients receiving IBR
- condition.parameters: human, plasma, oral, 420 mg, AUCALL AUC All, subj=2 (420 mg IBR per day), steady state
readout.name: AUC

Form field: reported AUC of Nc1ncnc2c1c(-c1ccc(Oc3ccccc3)cc1)nn2[C@@H]1CCCN(C(=O)C(O)CO)C1 (stereo partly shown) [Dihydrodiol Ibrutinib] 2.53 µM·h

###

- experimental.protocol: 24 h therapeutic monitoring and noncompartmental pharmacokinetics in chronic lymphocytic leukemia patients receiving IBR
- condition.parameters: human, plasma, oral, 280 mg, LAMZ Lambda z, subj=3 (280 mg IBR per day), steady state
readout.name: k el (s⁻¹)
Give a bare numeral; the unit s⁻¹ is implied.

Form field: reported k el of Nc1ncnc2c1c(-c1ccc(Oc3ccccc3)cc1)nn2[C@@H]1CCCN(C(=O)C(O)CO)C1 (stereo partly shown) [Dihydrodiol Ibrutinib] 3.39e-05

###

- experimental.protocol: 24 h therapeutic monitoring and noncompartmental pharmacokinetics in chronic lymphocytic leukemia patients receiving IBR
- condition.parameters: human, plasma, oral, 420 mg, AUCIFO AUC Infinity Obs, subj=2 (420 mg IBR per day), steady state
readout.name: AUC(0-inf) (µM·h)
Give a bare numeral; the unit µM·h is implied.

Form field: reported AUC(0-inf) of Nc1ncnc2c1c(-c1ccc(Oc3ccccc3)cc1)nn2[C@@H]1CCCN(C(=O)C(O)CO)C1 (stereo partly shown) [Dihydrodiol Ibrutinib] 2.63

###

- experimental.protocol: 24 h therapeutic monitoring and noncompartmental pharmacokinetics in chronic lymphocytic leukemia patients receiving IBR
- condition.parameters: human, plasma, oral, 420 mg, t1/2, Patient 2, 420 mg IBR per day, steady state
readout.name: half-life

Form field: reported half-life of Nc1ncnc2c1c(-c1ccc(Oc3ccccc3)cc1)nn2[C@@H]1CCCN(C(=O)C(O)CO)C1 (stereo partly shown) [Dihydrodiol Ibrutinib] 5.35 h

###

- experimental.protocol: 24 h therapeutic monitoring and noncompartmental pharmacokinetics in chronic lymphocytic leukemia patients receiving IBR
- condition.parameters: human, plasma, oral, 280 mg/day, Conc., subj=3 (280 mg IBR per day), 1 h postdose
readout.name: concentration at 1 h (nM)
Give a bare numeral; the unit nM is implied.

Form field: reported concentration at 1 h of Nc1ncnc2c1c(-c1ccc(Oc3ccccc3)cc1)nn2[C@@H]1CCCN(C(=O)C(O)CO)C1 (stereo partly shown) [Dihydrodiol Ibrutinib] 195

###

- experimental.protocol: 24 h therapeutic monitoring and noncompartmental pharmacokinetics in chronic lymphocytic leukemia patients receiving IBR
- condition.parameters: human, plasma, oral, 420 mg, Conc., subj=2 (420 mg IBR per day), 2 h postdose
readout.name: concentration at 2 h (nM)
Give a bare numeral; the unit nM is implied.

Form field: reported concentration at 2 h of Nc1ncnc2c1c(-c1ccc(Oc3ccccc3)cc1)nn2[C@@H]1CCCN(C(=O)C(O)CO)C1 (stereo partly shown) [Dihydrodiol Ibrutinib] 227

###

- experimental.protocol: 24 h therapeutic monitoring and noncompartmental pharmacokinetics in chronic lymphocytic leukemia patients receiving IBR
- condition.parameters: human, plasma, oral, 420 mg/day, Conc., subj=2 (420 mg IBR per day), 24 h postdose
readout.name: concentration at 24 h (nM)
Give a bare numeral; the unit nM is implied.

Form field: reported concentration at 24 h of Nc1ncnc2c1c(-c1ccc(Oc3ccccc3)cc1)nn2[C@@H]1CCCN(C(=O)C(O)CO)C1 (stereo partly shown) [Dihydrodiol Ibrutinib] 13.2

###

- experimental.protocol: 24 h therapeutic monitoring and noncompartmental pharmacokinetics in chronic lymphocytic leukemia patients receiving IBR
- condition.parameters: human, plasma, oral, 420 mg, ke, Patient 2, 420 mg IBR per day, steady state
readout.name: k el (s⁻¹)
Give a bare numeral; the unit s⁻¹ is implied.

Form field: reported k el of Nc1ncnc2c1c(-c1ccc(Oc3ccccc3)cc1)nn2[C@@H]1CCCN(C(=O)C(O)CO)C1 (stereo partly shown) [Dihydrodiol Ibrutinib] 3.61e-05

###

- experimental.protocol: 24 h therapeutic monitoring and noncompartmental pharmacokinetics in chronic lymphocytic leukemia patients receiving IBR
- condition.parameters: human, plasma, oral, 280 mg, MRT0–24, Patient 3, 280 mg IBR per day, steady state
readout.name: MRT last (h)
Give a bare numeral; the unit h is implied.

Form field: reported MRT last of Nc1ncnc2c1c(-c1ccc(Oc3ccccc3)cc1)nn2[C@@H]1CCCN(C(=O)C(O)CO)C1 (stereo partly shown) [Dihydrodiol Ibrutinib] 4.54

###

- experimental.protocol: 24 h therapeutic monitoring and noncompartmental pharmacokinetics in chronic lymphocytic leukemia patients receiving IBR
- condition.parameters: human, plasma, oral, 420 mg, Conc., subj=2 (420 mg IBR per day), 0.5 h postdose
readout.name: concentration at 0.5 h (nM)
Give a bare numeral; the unit nM is implied.

Form field: reported concentration at 0.5 h of Nc1ncnc2c1c(-c1ccc(Oc3ccccc3)cc1)nn2[C@@H]1CCCN(C(=O)C(O)CO)C1 (stereo partly shown) [Dihydrodiol Ibrutinib] 71.5

###

- experimental.protocol: 24 h therapeutic monitoring and noncompartmental pharmacokinetics in chronic lymphocytic leukemia patients receiving IBR
- condition.parameters: human, plasma, oral, 420 mg, CLST Last Nonzero Conc, subj=1 (420 mg IBR per day), 24 h
readout.name: concentration at 24 h (nM)
Give a bare numeral; the unit nM is implied.

Form field: reported concentration at 24 h of Nc1ncnc2c1c(-c1ccc(Oc3ccccc3)cc1)nn2[C@@H]1CCCN(C(=O)C(O)CO)C1 (stereo partly shown) [Dihydrodiol Ibrutinib] 34.6

###

- experimental.protocol: 24 h therapeutic monitoring and noncompartmental pharmacokinetics in chronic lymphocytic leukemia patients receiving IBR
- condition.parameters: human, plasma, oral, 420 mg, MRT0–24, Patient 2, 420 mg IBR per day, steady state
readout.name: MRT last (h)
Give a bare numeral; the unit h is implied.

Form field: reported MRT last of Nc1ncnc2c1c(-c1ccc(Oc3ccccc3)cc1)nn2[C@@H]1CCCN(C(=O)C(O)CO)C1 (stereo partly shown) [Dihydrodiol Ibrutinib] 4.6

###

- experimental.protocol: 24 h therapeutic monitoring and noncompartmental pharmacokinetics in chronic lymphocytic leukemia patients receiving IBR
- condition.parameters: human, plasma, oral, 420 mg, tmax, Patient 2, 420 mg IBR per day, steady state
readout.name: Tmax (h)
Give a bare numeral; the unit h is implied.

Form field: reported Tmax of Nc1ncnc2c1c(-c1ccc(Oc3ccccc3)cc1)nn2[C@@H]1CCCN(C(=O)C(O)CO)C1 (stereo partly shown) [Dihydrodiol Ibrutinib] 1

###

- experimental.protocol: 24 h therapeutic monitoring and noncompartmental pharmacokinetics in chronic lymphocytic leukemia patients receiving IBR
- condition.parameters: human, plasma, oral, 280 mg/day, Conc., subj=3 (280 mg IBR per day), 2 h postdose
readout.name: concentration at 2 h (nM)
Give a bare numeral; the unit nM is implied.

Form field: reported concentration at 2 h of Nc1ncnc2c1c(-c1ccc(Oc3ccccc3)cc1)nn2[C@@H]1CCCN(C(=O)C(O)CO)C1 (stereo partly shown) [Dihydrodiol Ibrutinib] 217

###

- experimental.protocol: 24 h therapeutic monitoring and noncompartmental pharmacokinetics in chronic lymphocytic leukemia patients receiving IBR
- condition.parameters: human, plasma, oral, 280 mg, LAMZHL Half-Life Lambda z, subj=3 (280 mg IBR per day), steady state
readout.name: half-life (h)
Give a bare numeral; the unit h is implied.

Form field: reported half-life of Nc1ncnc2c1c(-c1ccc(Oc3ccccc3)cc1)nn2[C@@H]1CCCN(C(=O)C(O)CO)C1 (stereo partly shown) [Dihydrodiol Ibrutinib] 5.68

###

- experimental.protocol: 24 h therapeutic monitoring and noncompartmental pharmacokinetics in chronic lymphocytic leukemia patients receiving IBR
- condition.parameters: human, plasma, oral, 420 mg, Conc., subj=2 (420 mg IBR per day), 1 h postdose
readout.name: concentration at 1 h (nM)
Give a bare numeral; the unit nM is implied.

Form field: reported concentration at 1 h of Nc1ncnc2c1c(-c1ccc(Oc3ccccc3)cc1)nn2[C@@H]1CCCN(C(=O)C(O)CO)C1 (stereo partly shown) [Dihydrodiol Ibrutinib] 254

###

- experimental.protocol: 24 h therapeutic monitoring and noncompartmental pharmacokinetics in chronic lymphocytic leukemia patients receiving IBR
- condition.parameters: human, plasma, oral, 420 mg, Conc., subj=1 (420 mg IBR per day), 2 h postdose
readout.name: concentration at 2 h (µM)
Give a bare numeral; the unit µM is implied.

Form field: reported concentration at 2 h of Nc1ncnc2c1c(-c1ccc(Oc3ccccc3)cc1)nn2[C@@H]1CCCN(C(=O)C(O)CO)C1 (stereo partly shown) [Dihydrodiol Ibrutinib] 0.185

###

- experimental.protocol: 24 h therapeutic monitoring and noncompartmental pharmacokinetics in chronic lymphocytic leukemia patients receiving IBR
- condition.parameters: human, plasma, oral, 420 mg, LAMZHL Half-Life Lambda z, subj=2 (420 mg IBR per day), steady state
readout.name: half-life (h)
Give a bare numeral; the unit h is implied.

Form field: reported half-life of Nc1ncnc2c1c(-c1ccc(Oc3ccccc3)cc1)nn2[C@@H]1CCCN(C(=O)C(O)CO)C1 (stereo partly shown) [Dihydrodiol Ibrutinib] 5.35

The measured values listed here are drawn from paper PMC9331678.
